# subjectOfTest: PI3K alpha (Homo sapiens)
# Sequence (P42336 whole entry): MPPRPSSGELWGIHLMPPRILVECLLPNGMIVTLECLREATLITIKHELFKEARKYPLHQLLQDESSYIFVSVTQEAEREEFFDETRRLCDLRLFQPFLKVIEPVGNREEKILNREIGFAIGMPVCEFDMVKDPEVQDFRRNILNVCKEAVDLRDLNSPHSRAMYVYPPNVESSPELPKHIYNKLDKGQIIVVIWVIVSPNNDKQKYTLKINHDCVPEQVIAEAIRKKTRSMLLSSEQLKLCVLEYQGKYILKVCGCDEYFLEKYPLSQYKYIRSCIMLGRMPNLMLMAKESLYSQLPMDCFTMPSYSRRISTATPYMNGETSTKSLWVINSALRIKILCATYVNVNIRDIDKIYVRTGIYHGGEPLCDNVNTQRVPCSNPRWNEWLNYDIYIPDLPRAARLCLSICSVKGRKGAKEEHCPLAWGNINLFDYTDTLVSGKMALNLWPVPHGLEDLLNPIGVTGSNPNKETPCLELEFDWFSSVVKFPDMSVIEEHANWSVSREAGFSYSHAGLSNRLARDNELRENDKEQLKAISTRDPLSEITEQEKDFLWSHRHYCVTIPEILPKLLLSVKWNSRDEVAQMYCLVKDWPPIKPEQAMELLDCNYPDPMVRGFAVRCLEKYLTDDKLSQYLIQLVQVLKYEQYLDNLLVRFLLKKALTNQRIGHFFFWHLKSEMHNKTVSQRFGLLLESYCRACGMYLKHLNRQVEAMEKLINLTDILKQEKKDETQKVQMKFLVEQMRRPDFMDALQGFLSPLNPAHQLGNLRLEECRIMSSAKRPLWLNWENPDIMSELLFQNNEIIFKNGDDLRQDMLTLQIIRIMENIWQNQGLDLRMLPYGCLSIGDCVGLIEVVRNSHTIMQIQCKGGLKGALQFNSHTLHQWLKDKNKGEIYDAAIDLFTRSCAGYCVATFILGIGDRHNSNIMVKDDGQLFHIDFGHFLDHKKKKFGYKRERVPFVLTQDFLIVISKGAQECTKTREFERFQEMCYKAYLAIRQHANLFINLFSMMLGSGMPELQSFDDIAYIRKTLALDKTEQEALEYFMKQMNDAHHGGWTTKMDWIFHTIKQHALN
# Sequence (P27986 whole entry partner): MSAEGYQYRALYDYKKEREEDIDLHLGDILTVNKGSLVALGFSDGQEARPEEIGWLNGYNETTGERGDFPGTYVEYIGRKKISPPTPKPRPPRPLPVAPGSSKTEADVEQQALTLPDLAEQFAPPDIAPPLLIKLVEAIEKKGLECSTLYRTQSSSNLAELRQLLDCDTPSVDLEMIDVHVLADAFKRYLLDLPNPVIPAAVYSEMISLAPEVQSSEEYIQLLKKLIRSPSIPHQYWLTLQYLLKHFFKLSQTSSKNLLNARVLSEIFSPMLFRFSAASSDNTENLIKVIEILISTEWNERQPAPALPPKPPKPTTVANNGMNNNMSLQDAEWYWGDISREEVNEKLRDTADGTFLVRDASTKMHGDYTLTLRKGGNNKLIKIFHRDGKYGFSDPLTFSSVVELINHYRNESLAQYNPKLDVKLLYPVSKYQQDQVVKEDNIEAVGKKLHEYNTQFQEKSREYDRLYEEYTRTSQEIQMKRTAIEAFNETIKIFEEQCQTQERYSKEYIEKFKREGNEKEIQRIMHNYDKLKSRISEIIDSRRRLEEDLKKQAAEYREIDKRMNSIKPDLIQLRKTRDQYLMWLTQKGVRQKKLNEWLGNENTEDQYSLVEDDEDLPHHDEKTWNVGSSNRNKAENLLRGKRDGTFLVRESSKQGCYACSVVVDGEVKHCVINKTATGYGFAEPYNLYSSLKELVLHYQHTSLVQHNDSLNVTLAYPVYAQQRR
So I've got a bunch of molecules here, and I need their IC50 values.

(Q) Reported IC50, molecule N[C@H]1CC[C@H](Oc2nc(-c3cccc4[nH]ncc34)nc(N3CCOCC3)n2)CC1 : ____
(A) < 5 µM

(Q) Reported IC50, molecule CN1CCN(C(=O)c2cccc(Nc3nc(-c4cccc5[nH]ncc45)nc(N4CCOCC4)n3)c2)CC1 : ____
(A) < 5 µM

(Q) Reported IC50, molecule c1cc(-c2nc(-c3cccc4[nH]ncc34)nc(N3CCOCC3)n2)c2cn[nH]c2c1 : ____
(A) < 5 µM

(Q) Reported IC50, molecule O=C(O)CNc1nc(-c2cccc3c2CCC3=O)nc(N2CCOCC2)n1 : ____
(A) > 5 µM

(Q) Reported IC50, molecule CC1COCCN1c1nc(Oc2ccc(C(=O)N(C)C)cc2)nc(-c2cccc3[nH]ncc23)n1 (centres unmarked) : ____
(A) < 5 µM

(Q) Reported IC50, molecule CS(=O)(=O)N1CCN(C(=O)CNc2nc(-c3ccc(O)nc3)nc(N3CCOCC3)n2)CC1 : ____
(A) < 5 µM

(Q) Reported IC50, molecule c1ccc(Nc2nc(-c3cccc4c3cnn4C3CCCCO3)nc(N3CCOCC3)n2)cc1 (centres unmarked) : ____
(A) > 5 µM

(Q) Reported IC50, molecule CC(C)(CO)Nc1nc(-c2cccc3[nH]ncc23)nc(N2CCOCC2)n1 : ____
(A) < 5 µM

(Q) Reported IC50, molecule CN(C)C(=O)c1ccc(Oc2nc(-c3cnc(N)s3)nc(N3C4CCC3COC4)n2)cc1 : ____
(A) < 5 µM

(Q) Reported IC50, molecule Fc1ccc(-c2nc(N3CCNCC3)nc(N3CCOCC3)n2)cn1 : ____
(A) < 5 µM

(Q) Reported IC50, molecule CN(C)C(=O)c1ccc(Oc2nc(NC3CCOCC3)nc(-c3cccc4[nH]ncc34)n2)cc1 : ____
(A) > 5 µM

(Q) Reported IC50, molecule CN(C)C(=O)c1ccc(Oc2nc(-c3ccc4[nH]ccc4c3)nc(N3CCOCC3)n2)cc1 : ____
(A) < 5 µM

(Q) Reported IC50, molecule c1ccc(CSc2nc(-c3cccc4[nH]ncc34)nc(N3CCOCC3)n2)cc1 : ____
(A) < 5 µM

(Q) Reported IC50, molecule COc1cccc(-c2nc(NCC(=O)N3CCN(S(C)(=O)=O)CC3)nc(N3CCOCC3)n2)c1 : ____
(A) > 5 µM

(Q) Reported IC50, molecule COc1ccc(F)c(-c2nc(NCC(=O)O)nc(N3CCOCC3)n2)c1 : ____
(A) > 5 µM

(Q) Reported IC50, molecule NC1CCN(c2nc(-c3cccc4[nH]ncc34)nc(N3CCOCC3)n2)CC1 : ____
(A) < 5 µM

(Q) Reported IC50, molecule CC(Nc1nc(-c2cccc(NS(C)(=O)=O)c2)nc(N2CCOCC2)n1)C(=O)O (centres unmarked) : ____
(A) > 5 µM

(Q) Reported IC50, molecule CN(C)C(=O)N1CCC(COc2nc(-c3cccc4[nH]ncc34)nc(N3CCOCC3)n2)C1 (centres unmarked) : ____
(A) < 5 µM

(Q) Reported IC50, molecule O=C(O)CNc1nc(-c2cccc([N+](=O)[O-])c2)nc(N2CCOCC2)n1 : ____
(A) > 5 µM

(Q) Reported IC50, molecule CN(C)C(=O)c1ccc(Oc2nc(-c3cccc4[nH]ncc34)nc(N3CCOCC3)n2)nc1 : ____
(A) > 5 µM

(Q) Reported IC50, molecule Cc1nc(-c2cccc3[nH]ncc23)nc(N2CCOCC2)n1 : ____
(A) < 5 µM

(Q) Reported IC50, molecule CN(C)C(=O)[C@H]1C[C@H](Oc2nc(-c3cccc4[nH]ncc34)nc(N3CCOCC3)n2)CN1 : ____
(A) < 5 µM

(Q) Reported IC50, molecule CN(C)C(=O)NC(C)(C)COc1nc(-c2cccc3[nH]ncc23)nc(N2CCOCC2)n1 : ____
(A) < 5 µM

(Q) Reported IC50, molecule CC(C)(Nc1nc(-c2cccc3[nH]ncc23)nc(N2CCOCC2)n1)C(=O)O : ____
(A) < 5 µM

(Q) Reported IC50, molecule CC(C)(Nc1nc(-c2cccc(O)c2)nc(N2CCOCC2)n1)C(=O)O : ____
(A) < 5 µM

(Q) Reported IC50, molecule CN(C)C(=O)[C@H]1CCCN1c1nc(-c2cccc3[nH]ncc23)nc(N2CCOCC2)n1 : ____
(A) < 5 µM

(Q) Reported IC50, molecule CN(C)C(=O)c1cccc(Nc2nc(-c3cnc(N)nc3)nc(N3CCOCC3)n2)c1 : ____
(A) < 5 µM

(Q) Reported IC50, molecule CS(=O)(=O)N1CCN(C(=O)CNc2nc(-c3ccc(N)cc3)nc(N3CCOCC3)n2)CC1 : ____
(A) > 5 µM

(Q) Reported IC50, molecule c1cc(-c2nc(NC3CCOCC3)nc(N3CCOCC3)n2)c2cn[nH]c2c1 : ____
(A) < 5 µM

(Q) Reported IC50, molecule CN(C)C(=O)c1ccc(Oc2nc(-c3cnc(N)s3)nc(N3CCCOCC3)n2)cc1 : ____
(A) < 5 µM

(Q) Reported IC50, molecule C[C@H](Nc1nc(-c2cccc(NS(C)(=O)=O)c2)nc(N2CCOCC2)n1)C(=O)N1CCN(S(C)(=O)=O)CC1 : ____
(A) > 5 µM

(Q) Reported IC50, molecule CNC(=O)C(=O)N[C@H]1CC[C@H](Oc2nc(-c3cccc4[nH]ncc34)nc(N3CCOCC3)n2)CC1 : ____
(A) < 5 µM
